Reported CD50 values are given for each entry in this list.
System: Mus musculus
Assay: Trypanocidal Activity at I.C.E. value 0.64 when administered subcutaneously.
Type: functional

Query: Respond only with CD50 recorded for Br.CC[S+]([O-])c1ccc2n(c1)cc(-c1ccc(/C=N/NC(=N)N)cc1)[n+]2C.[Br-] (centres undefined)
Result: 1.6 mg/kg

Query: Respond only with CD50 recorded for Br.Cn1cc[n+](C)c1/C=C/c1ccc(/C=N/NC2=NCCN2)cc1.[Br-]
Result: 1.6 mg/kg

Query: Respond only with CD50 recorded for Br.Cc1cccc2n1cc(COc1ccc(/C=N/NC3=NCCN3)cc1)[n+]2C.[Br-]
Result: 0.8 mg/kg

Query: Respond only with CD50 recorded for Br.C[n+]1c(COc2ccc(/C=N/NC3=NCCCN3)cc2)cn2cc(C(F)(F)F)ccc21.[Br-]
Result: 1.6 mg/kg

----------
Test system: Mus musculus
Assay: Trypanocidal Activity at I.C.E. value 0.38 when administered subcutaneously.
Type: functional
endpoint: CD50 (mg/kg)
Response body: numeric value in mg/kg, unit text excluded.

Query: Respond only with CD50 recorded for Br.C[n+]1c(-c2ccc(/C=N/NC(=N)NCCN3CCOCC3)cc2)cn2ccccc21.[Br-]
Result: 0.8

Query: Respond only with CD50 recorded for Br.CC(Cc1c[nH]cn1)NC(=N)N/N=C/c1ccc(-c2cn3ccccc3[n+]2C)cc1.[Br-] (stereo not given)
Result: 1.6

Query: Respond only with CD50 recorded for Br.C/N=C(/N/N=C/c1ccc(-c2cn3ccc(C)cc3[n+]2C)cc1)SC.[Br-]
Result: 26

Query: Respond only with CD50 recorded for Br.CC(Cc1ccncc1)NC(=N)N/N=C/c1ccc(-c2cn3ccccc3[n+]2C)cc1.[Br-] (stereo not given)
Result: 0.8

Query: Respond only with CD50 recorded for Br.CSC(=N)N/N=C/c1ccc(-c2cn3cc(C)ccc3[n+]2C)cc1.[Br-]
Result: 26

----------
Reported CD50 values are given for each entry in this list.
Test system: Mus musculus
Experiment: Trypanocidal Activity at I.C.E. value 0.17 when administered subcutaneously.
Type: functional
Response body: numeric value in mg/kg, unit text excluded.

Here are 4 compounds together with their reported answers.
Query: Respond only with CD50 recorded for CC(=O)Nc1ccc(-c2cn3ccccc3[n+]2C)cc1.[I-]
Result: 212

Query: Respond only with CD50 recorded for CC(=O)Nc1ccc(-c2cn3ccc4ccccc4c3[n+]2C)cc1.[Br-]
Result: 212

Query: Respond only with CD50 recorded for Cc1ccc(S(=O)(=O)O)cc1.Cc1ccc(S(=O)(=O)[O-])cc1.Cc1cccc2n1cc(/C=N/NC(=N)NO)[n+]2C
Result: 106

Query: Respond only with CD50 recorded for Br.C[n+]1c(-c2ccc(/C=N/NC3=NCCN3)cc2)c(Br)n2ccccc21.[Br-]
Result: 3.3

---
Query: Respond only with CD50 recorded for Cc1ccc(S(=O)(=O)N/N=C/c2ccc(-c3cn4ccccc4[n+]3C)cc2)cc1.[Br-]
Result: 53

----------
System: Trypanosoma brucei rhodesiense
Test: In Vitro measurement of inhibition of thymidine uptake in cell culture of Trypanosoma rhodesiense
Type: functional
Details: read-out: ID50 (the source's name)
endpoint: log10(IC50) (log10 of the value in µg/mL)
Values reflect log10 of reported IC50 (µg/mL).

Here are 6 molecules together with their reported answers.
Query: Respond only with log10(IC50) recorded for Br.Cn1c[n+](Cc2ccc(/C=N/NC(=N)N3CCCC3)cc2)c2ccccc21.[Br-]
Result: -0.22

Query: Respond only with log10(IC50) recorded for CC(=O)Nc1ccc2n(c1)cc(-c1ccc(/C=N/NC(=N)N)cc1)[n+]2C.Cc1ccc(S(=O)(=O)O)cc1.Cc1ccc(S(=O)(=O)[O-])cc1
Result: 0.18

Query: Respond only with log10(IC50) recorded for Br.C[n+]1c(COc2ccc(/C=N/NC3=NCCCN3)cc2)cn2cc(C(F)(F)F)ccc21.[Br-]
Result: -0.40

Query: Respond only with log10(IC50) recorded for Br.Cn1c(COc2ccc(/C=N/NC3=NCCCN3)cc2)[n+](C)c2ccccc21.[Br-]
Result: 0.64

Query: Respond only with log10(IC50) recorded for Br.CNC(=N)N/N=C/c1ccc(-c2c([N+](=O)[O-])n3ccccc3[n+]2C)cc1.[Br-]
Result: 0.73

Query: Respond only with log10(IC50) recorded for C[n+]1c(/C=C/c2ccc(/C=N/NC(=N)N)cc2)cn2ccccc21.Cc1ccc(S(=O)(=O)O)cc1.Cc1ccc(S(=O)(=O)[O-])cc1
Result: 0.43

Turning to the following molecule.
Query: Respond only with log10(IC50) recorded for Br.C[n+]1c(-c2ccc(/C=N/NC3=NCCN3)cc2)c(Br)n2ccccc21.[Br-]
Result: -0.15
